Biological target: Glucocorticoid receptor (Homo sapiens)
Assay: qHTS assay for small molecule agonists of glucocorticoid receptor signaling (AID 588532);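 note: 100% = dexamethasone at 0.1 µM and 0% = DMSO only wells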
Conditions: HeLa MMTV-bla, beta-lactamase ratio, agonist, 18 h; stronger effect = higher value; percent of dexamethasone control, DMSO zero
Inconclusive results are not listed.
ATTRIBUTE MEASURED: activation (%)
The reply should contain only the number, in %.

1) Nc1ccc([N+](=O)[O-])c(N)c1 :: -8.8

Prompt: Using the record for Nc1cc(Cl)c([N+](=O)[O-])cc1O , report its activation.
Completion: -1.56

Prompt: What activation value was documented for this compound, CCCCC(CC)CO (centres undefined) ?
Completion: -4.31

Prompt: Param item = CC(C)(c1cc(Br)c(OCC(Br)CBr)c(Br)c1)c1cc(Br)c(OCC(Br)CBr)c(Br)c1 (centres undefined) ; retrieve measured activation.
Completion: 11.6

From: PubChem BioAssay (NCATS)
